System: Staphylococcus aureus
Assay: Antibacterial activity against methicillin-resistant Staphylococcus aureus ATCC 33591 after 16 to 18 hrs by broth microdilution method
Assay type: functional
Details: time 16-18 hrs
Lab note: compare MIC with 0.5 µg/mL, writing yes (1) if less and no (0) if equal or more.

{"columns": ["MOLECULE", "LABEL_VALUE"],
 "data": [
  ["CCCC[C@H](CN(O)C=O)C(=O)N1CCC[C@H]1c1nnc(-c2ccnc(C(F)(F)F)c2)s1", "yes (1)"],
  ["CCCC[C@H](CN(O)C=O)C(=O)N1CCC[C@H]1c1nnc(-c2ccccc2)s1", "no (0)"],
  ["CCCC[C@H](CN(O)C=O)C(=O)N1CCC[C@H]1c1nnc(-c2sccc2C)s1", "yes (1)"],
  ["CCCC[C@H](CN(O)C=O)C(=O)N1CCC[C@H]1c1nnc(-c2ccsc2)s1", "yes (1)"],
  ["CCCC[C@H](CN(O)C=O)C(=O)N1CCC[C@H]1c1nnc(-c2ccc(F)cc2)s1", "yes (1)"],
  ["CCCC[C@H](CN(O)C=O)C(=O)N1CCC[C@H]1c1nnc(-c2ccns2)s1", "yes (1)"],
  ["CCCC[C@H](CN(O)C=O)C(=O)N1CCC[C@H]1c1nnc(-c2ccc(OC)c(OC)c2)s1", "yes (1)"],
  ["CCCC[C@H](CN(O)C=O)C(=O)N1CCC[C@H]1c1nnc(-c2ccc(C(F)(F)F)cc2)s1", "no (0)"],
  ["CCCC[C@H](CN(O)C=O)C(=O)N1CCC[C@H]1c1nnc(-c2nccs2)s1", "yes (1)"],
  ["CCCC[C@H](CN(O)C=O)C(=O)N1CCC[C@H]1c1nnc(-c2c(F)cccc2[N+](=O)[O-])s1", "no (0)"],
  ["CCCC[C@H](CN(O)C=O)C(=O)N1CCC[C@H]1c1nnc(-c2ccc([N+](=O)[O-])cc2)s1", "yes (1)"],
  ["CCCC[C@H](CN(O)C=O)C(=O)N1CCC[C@H]1c1nnc(-c2ccc3[nH]ccc3c2)s1", "no (0)"],
  ["CCCCc1ccc(-c2nnc([C@@H]3CCCN3C(=O)[C@H](CCCC)CN(O)C=O)s2)cc1", "no (0)"],
  ["CCCC[C@H](CN(O)C=O)C(=O)N1CCC[C@H]1c1nnc(-c2ncccc2F)s1", "yes (1)"],
  ["CCCC[C@H](CN(O)C=O)C(=O)N1CCC[C@H]1C(=O)Nc1ccc(F)c[n+]1[O-]", "yes (1)"],
  ["CCCC[C@H](CN(O)C=O)C(=O)N1CCC[C@H]1c1nnc(-c2ccc(C(C)(C)C)cc2)s1", "no (0)"],
  ["CCCC[C@H](CN(O)C=O)C(=O)N1CCC[C@H]1c1nnc(CCC)s1", "no (0)"],
  ["CCCC[C@H](CN(O)C=O)C(=O)N1CCC[C@H]1c1nnc(-c2ccccc2OC)s1", "no (0)"],
  ["CCCC[C@H](CN(O)C=O)C(=O)N1CCC[C@H]1c1nnc(-c2ccc(C(F)(F)F)cc2F)s1", "yes (1)"],
  ["CCCC[C@H](CN(O)C=O)C(=O)N1CCC[C@H]1c1nnc(-c2cccs2)s1", "yes (1)"],
  ["CCCC[C@H](CN(O)C=O)C(=O)N1CCC[C@H]1c1nnc(-c2ccncc2)s1", "yes (1)"],
  ["CCCC[C@H](CN(O)C=O)C(=O)N1CCC[C@H]1c1nnc(-c2ccc(-c3ccccc3)cc2)s1", "no (0)"],
  ["CCCC[C@H](CN(O)C=O)C(=O)N1CCC[C@H]1c1nnc(-c2cccc3ccccc23)s1", "no (0)"],
  ["CC(=O)NC[C@H]1CN(c2ccc(N3CCOCC3)c(F)c2)C(=O)O1 [LINEZOLID]", "no (0)"],
  ["CCCC[C@H](CN(O)C=O)C(=O)N1CCC[C@H]1c1nnc(C2CCOC2)s1 (some centres not stated)", "no (0)"],
  ["CCCC[C@H](CN(O)C=O)C(=O)N1CCC[C@H]1c1nnc(-c2ccc(OC)cc2)s1", "yes (1)"],
  ["CCCC[C@H](CN(O)C=O)C(=O)N1CCC[C@H]1c1nnc(-c2cc(C(F)(F)F)cc(C(F)(F)F)c2)s1", "no (0)"],
  ["CCCC[C@H](CN(O)C=O)C(=O)N1CCC[C@H]1c1nnc(-c2ccc(Br)s2)s1", "yes (1)"],
  ["CCCC[C@H](CN(O)C=O)C(=O)N1CCC[C@H]1c1nnc(-c2ccc(C#N)cc2F)s1", "yes (1)"],
  ["CCCC[C@H](CN(O)C=O)C(=O)N1CCC[C@H]1c1nnc(C2CC2)s1", "no (0)"],
  ["CCCC[C@H](CN(O)C=O)C(=O)N1CCC[C@H]1c1nnc(C)s1", "no (0)"]
]}
